Provide the recorded pIC50 for the entries that follow.
- System: HepG2 cells
- experimental-protocol: MTT proliferation assay, HepG2
- Assay type: cell-based
- condition-set: Homo sapiens, HepG2, 48 h
Entry type: numeric. Quantity: pIC50, the -log10 of concentration in molar units.

-- ask # lookup: pIC50 of O=C(NCc1cccc(Cl)c1)Nc1ccc(OCc2ccc(OCCN3CCCCC3)cc2)c2ccccc12 [ID210106D-1]
-- reply 5.28

-- ask # lookup: pIC50 of O=C(Nc1ccc(Cl)cc1F)Nc1ccc(OCc2ccc(OCCN3CCCCC3)cc2)c2ccccc12 [IY210103B-1]
-- reply 4.17

-- ask # lookup: pIC50 of COc1ccc(NC(=O)Nc2ccc(OCc3ccc(OCCN4CCCCC4)cc3)c3ccccc23)cc1 [IY1214A-1]
-- reply 5.73

-- ask # lookup: pIC50 of O=C(Nc1ccc(F)cc1)Nc1ccc(OCc2ccc(OCCN3CCCCC3)cc2)c2ccccc12 [IY210105D-1]
-- reply 5.42
